Target: Cytochrome P450 2C9 (Homo sapiens) (UniProt P11712)
Sequence (P11712 whole entry, looked up): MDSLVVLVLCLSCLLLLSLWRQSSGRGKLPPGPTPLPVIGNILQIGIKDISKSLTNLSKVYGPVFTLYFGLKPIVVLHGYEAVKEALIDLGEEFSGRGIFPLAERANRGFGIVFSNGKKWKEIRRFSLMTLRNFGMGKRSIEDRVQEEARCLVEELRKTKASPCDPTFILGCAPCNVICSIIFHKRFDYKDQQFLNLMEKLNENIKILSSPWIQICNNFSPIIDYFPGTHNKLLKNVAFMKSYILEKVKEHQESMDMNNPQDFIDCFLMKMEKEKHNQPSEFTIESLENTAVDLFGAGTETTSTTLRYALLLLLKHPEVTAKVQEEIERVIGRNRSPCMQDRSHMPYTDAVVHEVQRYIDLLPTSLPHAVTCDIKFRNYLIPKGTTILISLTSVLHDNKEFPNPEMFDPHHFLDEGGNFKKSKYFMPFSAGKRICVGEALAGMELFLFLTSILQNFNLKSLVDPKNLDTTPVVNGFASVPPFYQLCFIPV
Assay: blockers of cytochrome P450 2C9 activity – biochemical, luminescence, ADME assay, primary screen (AID 777)
Conditions: CYP2C9 Supersomes, luciferin-H conversion, at 5 µM
About 19,000 (20%) of roughly 96,000 compounds were called active.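 How the source made its calls: active means blocking of liver enzyme CYP2C9 beyond about 50% at 5 µM (limit read from the data); inactive means the rest.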 These entries were drawn from the full list.
Tick one outcome: class 1 = active, class 0 = inactive

Would you please look over these solved cases?
O=C(CS(=O)(=O)Cc1ccccc1)NCC1CCCO1 (centres undefined)
class 0
CC(C)C(C(=O)NC1CCCCC1)N(CC1CCCO1)C(=O)CNS(=O)(=O)c1ccc(F)cc1 (centres undefined)
class 0
CCC(=O)N(C)C(c1ccccc1Cl)c1nnnn1-c1c(C)cccc1C (centres undefined)
class 0
COc1cc(Cl)c(C)cc1NC(=O)CSc1nnc(-c2cccnc2)n1Cc1ccco1
class 1

// switching to the query compound
Exercise: Fill in: this test's call for `COC(=O)c1c(-c2ccc(C)cc2)csc1N` is ___
Key: class 0

----------
Target: Cytochrome P450 2C9 (Homo sapiens)
Assay: blockers of cytochrome P450 2C9 activity – biochemical, luminescence, ADME assay, primary screen (AID 777)
Conditions: CYP2C9 Supersomes, luciferin-H conversion, at 5 µM
Out of some 96,000 compounds screened, about 19,000 (20%) were called active.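 Rule for the calls: active = blocking of liver enzyme CYP2C9 beyond about 50% at 5 µM (limit read from the data); inactive = the rest.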 A selection follows.
Tick one outcome: active, inactive

Cc1noc(C)c1S(=O)(=O)NCCc1ccc(S(N)(=O)=O)cc1
inactive

Exercise: Fill in: this test's call for `COc1ccc(C)c(Cn2c(-c3nonc3N)nc3ccccc32)c1` is ___
Key: active

----------
Biological target: Cytochrome P450 2C9 (Homo sapiens)
Assay: blockers of cytochrome P450 2C9 activity – biochemical, luminescence, ADME assay, primary screen (AID 777)
Conditions: CYP2C9 Supersomes, luciferin-H conversion, at 5 µM, stronger effect = higher value
Hit rate of the full screen: of about 96,000 compounds, about 19,000 (20%) were called active. Only a sample is shown.
inhibition values, listed per item
Express it in %; write the number only.

C=CCOC(=O)C1=C(C)NC(SCC(=O)OCC)=C(C#N)C1c1ccc(C)cc1 (configuration not stated)
64.3
COC(=O)c1ccc(NC(=O)C(C)N2C(=O)c3ccccc3C2=O)cc1 (configuration not stated)
26.7
CCOc1ccc(NC(=O)c2ccccc2NS(C)(=O)=O)cc1
54.1
CCCc1ccc(OCC(=O)NNC(=S)NC(=O)c2ccco2)cc1
65.8
Cc1ccc(N2C(=O)C(Cc3ccccc3)NC2=S)cc1 (configuration not stated)
78.4
CCCNC(=O)Nc1ccccc1C(=O)Nc1ccc(OC)cc1
44.3

Switching to the query record.
Exercise: Returns the measured inhibition for the input compound. Input: O=C(C1CCCO1)N(Cc1ccccc1)c1ccccc1 (configuration not stated)
Key: -4

----------
Biological target: Cytochrome P450 2C9 (Homo sapiens) (UniProt P11712)
Assay: blockers of cytochrome P450 2C9 activity – biochemical, luminescence, ADME assay, primary screen (AID 777)
Details: CYP2C9 Supersomes, luciferin-H conversion, at 5 µM
Hit rate of the full screen: of about 96,000 compounds, about 19,000 (20%) were called active.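 Rule for the calls: active = blocking of liver enzyme CYP2C9 beyond about 50% at 5 µM (limit read from the data); inactive = the rest.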 A selection follows.
Tick one outcome: y (active), n (inactive)

Would you please look over these solved cases?
O=c1cc(O)nc(SCc2ccccc2Cl)[nH]1
n
Cc1cc(=O)[nH]c(SCc2cc(Cl)ccc2OC(F)F)n1
y
Cc1cc(=O)[nH]c(SCc2cccc(F)c2)n1
n
CCCCn1c(=S)[nH]c2cc(S(=O)(=O)N3CCCCC3)ccc21
y

Exercise: Fill in: this test's call for `CN1CCCN(S(=O)(=O)c2ccc3c(c2)OCCO3)CC1` is ___
Key: n
